Test system: SN12C renal
Experiment: NCI-60 one-dose screen, 48 h
Settings: 10 µM unless noted
Compounds without any hit were thinned out: in the full panel of roughly 83,000, 20% have a hit. The source made the active and inactive calls. How the source made its calls: active means growth percent below 10; inactive means the rest.
Outcome codes: active, inactive

compound | system-tested | group
Cc1ccc(N2C(=O)/C(=C/C=C/c3ccco3)SC2=S)cc1 | SN12C renal | inactive
CCCCc1nc(/C=N/Nc2nc(Nc3ccccc3)nc(Nc3ccc(S(N)(=O)=O)cc3)n2)c(Cl)[nH]1 | SN12C renal | inactive
COc1ccc(/C=C/C(=O)c2cccc(NC(=O)CSc3nc4ccccc4c(=O)n3-c3ccccc3)c2)cc1OC | SN12C renal | inactive
CN1CCN(c2ccc(/C=N/n3cnc4oc(-c5ccccc5)cc4c3=N)cc2)CC1 | SN12C renal | inactive
NC(=O)c1c(NC(=O)c2ccc(F)cc2F)sc2c1CCC(=O)C2 | SN12C renal | inactive
Cc1ccc(-n2cc(/C=N/NC(=O)c3ccncc3)c(-c3ccc(S(C)(=O)=O)cc3)n2)cc1 | SN12C renal | inactive
Cc1ccc2sc3c(c2c1)OC(N)=C(C#N)C3c1cccc(F)c1 (stereo not drawn) | SN12C renal | inactive
NS(=O)(=O)c1ccc(-n2cc(CN3CCCCC3)nn2)cc1 | SN12C renal | inactive
O=S(=O)(Nc1ccc2c(c1)OCO2)c1ccc(-c2cnc(C3CC3)o2)cc1 | SN12C renal | inactive
CCNC(=O)N1CCc2cc(OC)c(OCCc3ccc(OC)c(N)c3)cc2C1c1cc(C)c(C)cc1C (stereo not drawn) | SN12C renal | inactive
C=C(C)[C@@H]1CC[C@]2(COCCCNCCC#N)CC[C@]3(C)[C@H](CC[C@@H]4[C@@]5(C)CC[C@H](OCCCNCCC#N)C(C)(C)[C@@H]5CC[C@]43C)[C@@H]12 | SN12C renal | inactive
C#Cc1nc(C(=O)NCCC(=O)Nc2ccc(NC(=O)c3ccc(/C=C/C(=O)c4nccn4C)cc3)cc2)cs1 | SN12C renal | inactive
O=C(Cn1cc(-c2ccccc2)nn1)Nc1nc(-c2ccc(Cl)cc2)cs1 | SN12C renal | inactive
N#Cc1c(NC(=O)c2cccc(C(F)(F)F)c2F)sc2c1CCC(=O)C2 | SN12C renal | active
Nc1ncc(-c2ccc3ncnc(N4CCc5cc(F)c(F)cc54)c3c2)cn1 | SN12C renal | inactive
CNC(=O)c1cc(Oc2ccc3nc(NC(=O)c4ccc(N5CCOCC5)c(C(F)(F)F)c4)sc3c2)ccn1 | SN12C renal | inactive
CN1CCN(Cc2ccc(NC(=O)c3cncc(C#Cc4cnc5ccc(OCC6(C)COC6)nn45)c3)cc2C(F)(F)F)CC1 | SN12C renal | active
CCn1c(SCC(=O)Nc2cccc(C(=O)/C=C/c3cc(OC)c(OC)c(OC)c3)c2)nc2ccccc2c1=O | SN12C renal | inactive
